# Study target: Smc1/Smc3 heterodimer with Scc1-C (cohesin) (Saccharomyces cerevisiae, UniProt P32908+P47037, P32908:D1164E, form not given)
# Construct: N-terminal tags; Sf9 insect cells; fluorescently labelled for MST; with Sister chromatid cohesion protein 1
# Sequence (P32908 1-1225 D1164E): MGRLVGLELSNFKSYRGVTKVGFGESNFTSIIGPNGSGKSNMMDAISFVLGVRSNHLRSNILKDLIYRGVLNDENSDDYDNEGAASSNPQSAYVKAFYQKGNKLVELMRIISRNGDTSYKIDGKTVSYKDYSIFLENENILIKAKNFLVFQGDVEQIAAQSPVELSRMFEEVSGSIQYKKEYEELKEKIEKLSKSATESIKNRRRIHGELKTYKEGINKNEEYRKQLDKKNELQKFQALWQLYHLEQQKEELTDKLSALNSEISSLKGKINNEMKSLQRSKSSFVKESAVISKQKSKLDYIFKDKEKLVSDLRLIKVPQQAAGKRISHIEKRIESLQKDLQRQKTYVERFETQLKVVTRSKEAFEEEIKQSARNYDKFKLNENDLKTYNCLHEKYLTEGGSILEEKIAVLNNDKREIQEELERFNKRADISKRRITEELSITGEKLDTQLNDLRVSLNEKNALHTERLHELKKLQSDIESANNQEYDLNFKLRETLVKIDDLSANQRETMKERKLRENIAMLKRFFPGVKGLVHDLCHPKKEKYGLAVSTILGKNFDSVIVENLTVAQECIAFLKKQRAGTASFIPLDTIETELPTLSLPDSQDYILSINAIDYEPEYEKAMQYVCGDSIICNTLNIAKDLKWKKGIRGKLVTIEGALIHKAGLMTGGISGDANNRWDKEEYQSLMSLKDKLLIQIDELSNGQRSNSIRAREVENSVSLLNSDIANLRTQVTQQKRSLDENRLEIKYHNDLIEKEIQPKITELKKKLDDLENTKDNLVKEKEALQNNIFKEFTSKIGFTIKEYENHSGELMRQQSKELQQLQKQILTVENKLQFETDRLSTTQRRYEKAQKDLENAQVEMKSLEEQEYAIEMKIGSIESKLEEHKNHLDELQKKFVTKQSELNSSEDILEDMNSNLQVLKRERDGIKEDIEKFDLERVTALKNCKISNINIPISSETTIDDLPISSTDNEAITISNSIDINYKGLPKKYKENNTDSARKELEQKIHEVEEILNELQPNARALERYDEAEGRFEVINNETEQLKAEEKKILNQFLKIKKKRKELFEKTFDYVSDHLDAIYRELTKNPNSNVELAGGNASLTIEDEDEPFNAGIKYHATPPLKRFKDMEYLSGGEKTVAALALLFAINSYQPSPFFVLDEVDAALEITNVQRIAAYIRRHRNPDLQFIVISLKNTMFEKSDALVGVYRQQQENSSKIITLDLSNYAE
# Sequence (P47037 1-1230): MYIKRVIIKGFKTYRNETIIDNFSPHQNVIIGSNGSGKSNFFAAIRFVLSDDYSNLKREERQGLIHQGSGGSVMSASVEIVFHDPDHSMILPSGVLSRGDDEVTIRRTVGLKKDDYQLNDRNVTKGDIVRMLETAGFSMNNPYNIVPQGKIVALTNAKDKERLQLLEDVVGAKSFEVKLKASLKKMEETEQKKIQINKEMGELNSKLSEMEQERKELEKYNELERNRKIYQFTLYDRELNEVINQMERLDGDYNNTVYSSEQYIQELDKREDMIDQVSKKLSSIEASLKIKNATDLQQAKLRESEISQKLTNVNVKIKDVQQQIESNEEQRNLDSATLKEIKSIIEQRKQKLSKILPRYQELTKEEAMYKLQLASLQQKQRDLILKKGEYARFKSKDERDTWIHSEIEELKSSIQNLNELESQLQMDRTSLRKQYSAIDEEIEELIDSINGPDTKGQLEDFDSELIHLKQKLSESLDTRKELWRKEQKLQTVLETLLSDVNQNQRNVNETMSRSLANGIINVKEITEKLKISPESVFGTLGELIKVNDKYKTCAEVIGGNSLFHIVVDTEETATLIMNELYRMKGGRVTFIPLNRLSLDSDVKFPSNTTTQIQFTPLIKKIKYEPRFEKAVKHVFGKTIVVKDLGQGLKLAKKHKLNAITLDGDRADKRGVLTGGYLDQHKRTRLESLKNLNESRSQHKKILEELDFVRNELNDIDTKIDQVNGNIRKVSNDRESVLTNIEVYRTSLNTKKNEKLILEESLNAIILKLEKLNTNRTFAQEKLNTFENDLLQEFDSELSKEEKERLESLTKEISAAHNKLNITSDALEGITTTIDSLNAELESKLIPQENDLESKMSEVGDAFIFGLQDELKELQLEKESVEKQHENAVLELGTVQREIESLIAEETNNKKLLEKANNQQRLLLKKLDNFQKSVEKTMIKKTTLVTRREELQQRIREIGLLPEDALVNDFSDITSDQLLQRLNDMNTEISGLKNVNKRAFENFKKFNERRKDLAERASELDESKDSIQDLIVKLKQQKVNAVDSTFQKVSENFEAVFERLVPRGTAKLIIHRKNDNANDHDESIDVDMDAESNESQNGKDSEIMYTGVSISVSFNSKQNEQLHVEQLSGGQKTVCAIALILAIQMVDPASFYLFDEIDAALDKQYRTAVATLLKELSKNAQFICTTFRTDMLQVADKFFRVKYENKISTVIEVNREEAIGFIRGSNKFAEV
# Sequence (Q12158 1-566 partner): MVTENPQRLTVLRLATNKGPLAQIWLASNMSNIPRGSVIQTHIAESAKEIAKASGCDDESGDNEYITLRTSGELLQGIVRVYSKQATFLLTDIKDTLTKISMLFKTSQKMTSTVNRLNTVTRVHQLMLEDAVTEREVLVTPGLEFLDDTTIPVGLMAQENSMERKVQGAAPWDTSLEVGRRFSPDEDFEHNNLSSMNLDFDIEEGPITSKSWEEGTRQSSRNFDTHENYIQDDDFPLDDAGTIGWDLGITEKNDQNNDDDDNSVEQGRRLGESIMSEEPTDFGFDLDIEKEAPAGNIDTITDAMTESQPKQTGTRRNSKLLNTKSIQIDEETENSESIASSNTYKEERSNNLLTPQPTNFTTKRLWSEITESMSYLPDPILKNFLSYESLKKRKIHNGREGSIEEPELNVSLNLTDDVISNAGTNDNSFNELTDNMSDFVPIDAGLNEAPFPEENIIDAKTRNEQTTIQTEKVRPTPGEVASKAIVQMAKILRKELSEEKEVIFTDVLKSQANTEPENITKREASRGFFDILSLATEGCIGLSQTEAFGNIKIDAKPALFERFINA
# Assay: microscale thermophoresis
# Assay context: fluorescently labelled protein; Smc1 co-purified with Scc1-C, plus Smc3; read-out: affinity
Assay endpoint: Kd (µM)
Write the value in µM as a bare number.

Nc1ncnc2c1ncn2[C@@H]1O[C@H](COP(=O)(O)OP(=O)(O)OP(=O)(O)O)[C@@H](O)[C@H]1O has a reported Kd of 542
